assay type: in vitro ADME, hog; settings: pH 7
Square brackets hold non-standard residues; d marks the D form. Peptide text beside a SMILES is read from it. NMeF = CN[C@@H](Cc1ccccc1)C(=O)O
readoutType: T1/2

Looking for the measured T1/2 of CC[C@H](C)[C@H](NC(=O)[C@@H]1CCCN1C(=O)[C@@H](NC(=O)[C@H](Cc1ccccc1)NC)C(C)C)C(=O)N[C@@H](Cc1ccccc1)C(=O)N[C@H](C(=O)N[C@@H](Cc1ccc(O)cc1)C(=O)NCC(=O)N[C@@H](CCC(=O)O)C(=O)N[C@@H](CC(C)C)C(=O)N[C@@H](CCC(N)=O)C(=O)N[C@H](CCCNC(=N)N)C(=O)N[C@@H](CC(C)C)C(=O)N[C@@H](CCCCN)C(N)=O)[C@@H](C)O (H-[NMeF]VPIFTYGELQ[dR]LK-NH2) , can you help?
41
